All figures here come from patent US10093683B2.

Some molecules, each annotated with its measured pKi.
- study_target: human Factor XIa (Homo sapiens (Human), UniProt P03951)
- Sequence (P03951 388-625): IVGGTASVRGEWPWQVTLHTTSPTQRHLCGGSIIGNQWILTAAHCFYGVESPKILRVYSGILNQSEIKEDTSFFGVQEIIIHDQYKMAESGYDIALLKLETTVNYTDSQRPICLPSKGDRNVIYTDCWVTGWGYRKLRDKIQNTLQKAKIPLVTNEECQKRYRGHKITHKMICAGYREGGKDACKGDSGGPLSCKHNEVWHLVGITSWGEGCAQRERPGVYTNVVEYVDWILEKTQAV
- Sequence (P03951 19-387 partner): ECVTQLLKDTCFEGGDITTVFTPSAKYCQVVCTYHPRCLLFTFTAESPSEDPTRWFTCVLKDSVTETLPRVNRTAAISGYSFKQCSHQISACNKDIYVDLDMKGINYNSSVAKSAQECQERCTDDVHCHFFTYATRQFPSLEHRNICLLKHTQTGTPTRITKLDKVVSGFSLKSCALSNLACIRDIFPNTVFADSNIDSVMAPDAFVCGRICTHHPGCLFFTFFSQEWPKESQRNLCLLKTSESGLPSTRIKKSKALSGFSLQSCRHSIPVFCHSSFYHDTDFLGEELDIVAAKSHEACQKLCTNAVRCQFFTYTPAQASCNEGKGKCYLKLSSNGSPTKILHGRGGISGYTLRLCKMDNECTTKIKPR
- assay_overview: Factor XIa Assay
- Assay type: biochemical
- assay_conditions: purified human Factor XIa 40 pM, Z-Gly-Pro-Arg-AFC 100 μM, pH 7.4; read-out: FXIa Ki
# log scale: pKi equals minus log10 of the concentration in mol/L

Sample records with pKi:
molecule	pKi
COC(=O)Nc1ccc(C(=O)N[C@@H](CCN2CCC2)C(=O)N2CC[C@@]3(C2)OC(=O)Nc2ccc(Cl)cc23)cc1	6.66
O=C(NCc1cccc(C(=O)O)c1)N[C@@H](Cc1ccccc1)C(=O)N1CCC2(C1)OC(=O)Nc1ccc(Cl)cc12 (stereo partly shown)	5.30
COC(=O)Nc1ccc(C(=O)N[C@@H](Cc2ccccc2)C(=O)N2CCC[C@@]3(C2)OC(=O)Nc2ccc(Cl)cc23)cc1	8.82

Kindly review the next molecule as well.
Prompt: pKi lookup needed for COC(=O)Nc1ccc(C(=O)N[C@@H](Cc2ccccc2)C(=O)N2CCC[C@@]3(C2)OC(=O)Nc2ccc(C(F)(F)F)cc23)cc1 , thanks.
Completion: 5.07

* * *

- study_target: human Factor XIa (Homo sapiens (Human))
- assay_overview: Factor XIa Assay
- Type: biochemical
- assay_conditions: purified human Factor XIa 40 pM, Z-Gly-Pro-Arg-AFC 100 μM, pH 7.4; read-out: FXIa Ki
endpoint_label: pKi
Quick note: pKi values are minus log10 of concentrations in mol/L.

compound	study_target	endpoint_label	reported
COC(=O)Nc1ccc(-c2ncc(C(Cc3ccccc3)C(=O)N3CC[C@@]4(C3)OC(=O)Nc3ccc(Cl)c(F)c34)[nH]2)cc1 (stereo partly shown)	human Factor XIa (Homo sapiens (Human))	pKi	7.04
COC(=O)Nc1ccc(C(=O)N[C@@H](CC[S+](C)[O-])C(=O)N2CCC[C@@]3(C2)OC(=O)Nc2ccc(Cl)cc23)cc1 (stereo partly shown)	human Factor XIa (Homo sapiens (Human))	pKi	6.99
COC/C=C/c1ccc(C[C@H](NC(=O)c2ccc(NC(=O)OC)cc2)C(=O)N2CC[C@@]3(C2)OC(=O)Nc2ccc(Cl)cc23)cc1	human Factor XIa (Homo sapiens (Human))	pKi	7.12
COC(=O)Nc1ccc(C(=O)N[C@@H](CC(=O)NCC2CC2)C(=O)N2CCC[C@@]3(C2)OC(=O)Nc2ccc(Cl)cc23)cc1	human Factor XIa (Homo sapiens (Human))	pKi	7.39
COC(=O)Nc1ccc(C(=O)N[C@@H](CC(=O)NC2CCOCC2)C(=O)N2CC[C@@]3(C2)OC(=O)Nc2ccc(Cl)cc23)cc1	human Factor XIa (Homo sapiens (Human))	pKi	7.23

Prompt: Record lookup: for human Factor XIa (Homo sapiens (Human)), what pKi belongs to COC(=O)Nc1ccc(C(=O)N[C@@H](Cc2cscn2)C(=O)N2CCC[C@@]3(C2)OC(=O)Nc2ccc(Cl)cc23)cc1 ?
Completion: 8.39

* * *

- study_target: human Factor XIa (Homo sapiens (Human), UniProt P03951)
- assay_overview: Factor XIa Assay
- Format: biochemical
- assay_conditions: read-out: FXIa Ki
compounds and their reported log10 of Ki
Short version: log10 scale, Ki, nM.

Examples from the recorded data:
compound	log10 of Ki
O=C1Nc2ccc(Cl)cc2C2(CCN(C(=O)[C@H](Cc3ccccc3)NC(=O)c3ccc4c(c3)S(=O)(=O)NC4=O)C2)O1 (stereo partly drawn) [Example 184]	3.70
COC(=O)Nc1ccc(C(=O)N[C@@H](Cc2ccccc2)C(=O)N2CCC[C@@]3(C2)OC(=O)Nc2ccc(Cl)c(F)c23)nn1 [Example 242]	2.25
O=C1Nc2ccc(Cl)cc2C2(CCN(C(=O)[C@H](Cc3ccccc3)NC(=O)c3ccc4cn[nH]c4c3)C2)O1 (stereo partly drawn) [Example 182]	2.14
COC(=O)n1nc(N)c2ccc(C(=O)N[C@@H](Cc3ccccc3)C(=O)N3CC[C@@]4(C3)OC(=O)Nc3ccc(Cl)cc34)cc21 [Example 226]	1.26
Cc1cc2cc(C(=O)N[C@@H](Cc3ccccc3)C(=O)N3CCC[C@@]4(C3)OC(=O)Nc3ccc(Cl)cc34)ccc2[nH]1 [Example 250]	1.62

# ---- query compound ----
Prompt: Recorded log10 of Ki of N#Cc1ccc(C(=O)N[C@@H](Cc2ccccc2)C(=O)N2CCC3(C2)OC(=O)Nc2ccc(Cl)cc23)cn1 (stereo partly drawn) [Example 152] , please.
Completion: 3.01

* * *

Consider the following molecules and their measured Ki readings.
- study_target: human Factor XIa (Homo sapiens (Human))
- assay_overview: Factor XIa Assay
- Assay type: biochemical
- assay_conditions: read-out: FXIa Ki
All answers are understood in nM, so give the number only.

Prompt: Give its Ki value. Item: O=C1Nc2ccc(Cl)c(F)c2[C@@]2(CCCN(C(=O)[C@H](Cc3ccc(F)cc3)NC(=O)c3cc(F)c(C(=O)C(=O)O)s3)C2)O1
Completion: 0.7

Prompt: Also, Cc1nc(C(=O)N[C@@H](Cc2ccccc2)C(=O)N2CCC3(C2)OC(=O)Nc2ccc(Cl)cc23)co1 (stereo partly drawn) please.
Completion: 5000

Prompt: Query O=C1Nc2ccc(Cl)c(F)c2[C@@]2(CCCN(C(=O)[C@H](CC3CC3)NC(=O)c3ccc4c(O)n[nH]c4c3)C2)O1 next
Completion: 13.8

* * *

Recorded pKi values for a group of molecules are listed next.
- study_target: human Factor XIa (Homo sapiens (Human))
- assay_overview: Factor XIa Assay
- Assay type: biochemical
- assay_conditions: purified human Factor XIa 40 pM, Z-Gly-Pro-Arg-AFC 100 μM, pH 7.4; read-out: FXIa Ki
Field pKi (float): negative decimal logarithm of the concentration in molar.

Example molecules with recorded pKi:
molecule	reported
COC(=O)Nc1ccc(C(=O)N[C@@H](Cc2c[nH]c3ccccc23)C(=O)N2CCC[C@@]3(C2)OC(=O)Nc2ccc(Cl)c(F)c23)cc1 [Example 70]	7.68
COC(=O)Nc1ccc(C(=O)N[C@@H](CC2CCC(F)(F)CC2)C(=O)N2CCC[C@@]3(C2)OC(=O)Nc2ccc(Cl)cc23)cc1 [Example 106]	7.77

Shifting focus to the molecule that follows.
Prompt: Using the record for COC(=O)Nc1ccc(C(=O)N[C@@H](CCc2ccccc2)C(=O)N2CCC3(C2)OC(=O)Nc2ccc(Cl)cc23)cc1 (stereo partly drawn) [Example 52] , report its pKi.
Completion: 7.75

* * *

- study_target: Human plasma kallikrein (Homo sapiens (Human))
- Sequence (P03952 391-638): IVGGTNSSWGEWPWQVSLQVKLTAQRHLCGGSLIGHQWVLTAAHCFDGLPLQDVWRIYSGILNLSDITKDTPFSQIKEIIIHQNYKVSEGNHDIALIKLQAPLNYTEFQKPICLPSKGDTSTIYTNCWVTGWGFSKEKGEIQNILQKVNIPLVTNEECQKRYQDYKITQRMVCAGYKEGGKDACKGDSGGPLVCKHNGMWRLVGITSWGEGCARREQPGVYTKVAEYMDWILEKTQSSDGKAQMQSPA
- Sequence (P03952 20-390 partner): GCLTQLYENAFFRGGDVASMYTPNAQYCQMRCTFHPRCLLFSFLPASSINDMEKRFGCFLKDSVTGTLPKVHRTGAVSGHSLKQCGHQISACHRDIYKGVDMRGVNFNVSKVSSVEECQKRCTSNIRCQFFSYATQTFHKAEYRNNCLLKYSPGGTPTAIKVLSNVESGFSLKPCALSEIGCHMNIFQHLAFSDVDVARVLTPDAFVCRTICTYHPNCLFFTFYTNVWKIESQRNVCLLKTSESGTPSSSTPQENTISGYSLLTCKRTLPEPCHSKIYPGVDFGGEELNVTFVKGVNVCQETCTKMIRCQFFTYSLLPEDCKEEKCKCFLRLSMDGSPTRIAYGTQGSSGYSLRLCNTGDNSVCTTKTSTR
- assay_overview: Kallikrein Assay
- assay_conditions: purified Human plasma kallikrein 0.5 nM, Acetyl-K-P-R-AFC, pH 7.4; Ki from IC50 by Cheng Prusoff
Below, each of the compounds is paired with its reported Ki value.

Prompt: Any idea what its Ki is? The compound is COC(=O)Nc1ccc(C(=O)N[C@@H](Cc2cscn2)C(=O)N2CCC[C@@]3(C2)OC(=O)Nc2ccc(Cl)cc23)cc1 [Example 58]
Completion: < 1.36 nM

Prompt: Okay, and O=C1Nc2ccc(Cl)c(F)c2[C@@]2(CCCN(C(=O)[C@H](CC3CC3)NC(=O)c3ccc4[nH]c(=O)ccc4c3)C2)O1 [Example 255] ?
Completion: 0.45 nM

Prompt: Can you handle COC(=O)Nc1ccc(C(=O)N[C@@H](Cc2ccccc2)C(=O)N2CC[C@@]3(C2)OC(=O)Nc2ccc(Cl)cc23)cc1 [Example 6] next?
Completion: 4.02 nM

Prompt: Record: Nc1cc(C(=O)N[C@@H](Cc2ccccc2)C(=O)N2CCC3(C2)OC(=O)Nc2ccc(Cl)cc23)cc2[nH]cnc12 (some centres unmarked) [Example 260]
Completion: 130 nM

Prompt: Can you handle COC(=O)Nc1ccc(C(=O)N[C@@H](Cc2ccc(F)cn2)C(=O)N2CCC[C@@]3(C2)OC(=O)Nc2ccc(Cl)c(F)c23)cc1 [Example 74] next?
Completion: 2.53 nM

* * *

Measured Ki by item
- study_target: human Factor XIa (Homo sapiens (Human), UniProt P03951)
- assay_overview: Factor XIa Assay
- Format: biochemical
- assay_conditions: purified human Factor XIa 40 pM, Z-Gly-Pro-Arg-AFC 100 μM, pH 7.4; read-out: FXIa Ki
Respond numerically; units are nM and should not be typed.

Prompt: Give the measured Ki of COC(=O)Nc1ccc(C(=O)N[C@@H](Cc2ccc(OC3CCCC3)cc2)C(=O)N2CCC3(C2)OC(=O)Nc2ccc(Cl)cc23)cc1 (stereo partly drawn) .
Completion: 70

Prompt: Another compound: COC(=O)Nc1ccc(C(=O)N[C@@H](Cc2ccc(NC(C)=O)cc2)C(=O)N2CCC[C@@]3(C2)OC(=O)Nc2ccc(Cl)cc23)cc1
Completion: 2.01

Prompt: Further, for COC(=O)Nc1ccc(C(=O)N[C@@H](Cc2cscn2)C(=O)N2CCC3(C2)OC(=O)Nc2ccc(Cl)cc23)cc1 (stereo partly drawn) ?
Completion: 52.4

Prompt: COC(=O)Nc1ccc(C(=O)N[C@@H](CC(=O)NS(=O)(=O)C2CC2)C(=O)N2CC[C@@]3(C2)OC(=O)Nc2ccc(Cl)cc23)cc1 , same question.
Completion: 56.1

Prompt: Also need COC(=O)Nc1ccc(C(=O)N[C@@H](CC(=O)Nc2ccccn2)C(=O)N2CC[C@@]3(C2)OC(=O)Nc2ccc(Cl)cc23)cc1 , thanks.
Completion: 57.4
